Origin of the recorded values: PubChem BioAssay

- experimental-details: calcein-AM signal in unstimulated myeloma cells – cell-based, calcein-AM fluorescence, 48 h, PK04 Diversity Set, profiling panel (AID 1166);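 also: cells grown under basal conditions without added stimulus; test concentration not given here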
- run-parameters: RPMI8226 myeloma viability, higher = more signal
Below, each of the compounds is paired with its reported z-score value.

Measured z-score, O=C1C2C=CC(C(O)COCc3ccccc3)N(Nc3ccc([N+](=O)[O-])cc3)C2C(=O)N1c1ccccc1 (centres undefined) : -0.0326

Measured z-score, O=C1NC(=O)C2C1C=CC(C(O)c1ccc(I)cc1)N2Nc1ccc(Cl)cc1Cl (centres undefined) : -4.06

* * *

- experimental-details: change in splice reporter luminescence, either direction, cell-based, HEK293, spliceosome inhibition project, primary screen (AID 1101);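 also: HEK293 cells carrying a splicing-competent luciferase reporter gene; test concentration not given here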
- run-parameters: HEK293 splicing luciferase reporter, 24 h, higher = more signal, called active from +8 up or from −8 down
Below, each of the compounds is paired with its reported z-score value.
I'd appreciate a reply containing only the number, no unit.

Example cases with answers are listed next.
>>> recorded_value("C#CCN(C/C=C/c1ccccc1)[C@H](CO)c1ccccc1")
0.985
>>> recorded_value("CC(c1ccccc1)C(O)C1C=CC2C(=O)N(c3ccccc3)C(=O)C2N1Nc1ccccc1 (configuration not stated)")
-0.716
>>> recorded_value("COc1ccc([Si](C)(C)[C@@H]2[C@@H](CCn3cc(CCO)nn3)O[C@]3(C(=O)N(Cc4cccc(N5C(=O)c6cccc7cccc5c67)c4)c4ccccc43)[C@H]2C)cc1")
-1.23
>>> recorded_value("COCCCNC(=O)[C@]1(Cc2ccccc2)N=C(c2ccc(OCCCO)cc2)O[C@@H]1c1ccccc1CN=[N+]=[N-]")
-0.97
>>> recorded_value("C=CCN1Cc2ccccc2[C@@H]2OC(c3ccc(OCCCO)cc3)=N[C@]2(CCS(=O)(=O)c2ccccc2)C1=O")
0.211
>>> recorded_value("CC(C)CN1C(=O)[C@@]2(c3ccc([N+](=O)[O-])cc3)CC(=O)N(C3CCCCC3)[C@@H]2c2ccc(CO)cc21")
0.256

Measured z-score, COc1cc2c(cc1OC)CN(C(=O)[C@H]1[C@@H]3C(=O)O[C@@H](c4ccccc4)[C@@H](c4ccccc4)N3[C@@H](c3ccccc3OCCO)[C@]13C(=O)Nc1ccc(C#CCCO)cc13)CC2 : -0.826
